Measured values drawn from ChEMBL document CHEMBL1201862 for this set.

# Test system: UO-31
# Assay Explanation: NCI tumour cell line growth inhibition, 48 h
The source made the active and inactive calls. No stated cut-off is given here; in the data, active = GI50 up to about 1.1 µM and inactive = higher.
Quantity Kind: GI50

Example cases with answers are listed next.
Oc1ccc2ccccc2c1/N=N/c1cccc2ccccc12 | > 100 µM (inactive)
O=C(NN1CCCCC1)c1cc2cc(CCl)ccc2oc1=O | 18.5 µM (inactive)
COc1cc(C2c3cc4c(cc3OC(O)C2C)OCO4)cc(OC)c1O (centres undefined) | 21.3 µM (inactive)

# lookup: GI50 of CCCCCCCCCCCCCCCCC(=O)NCC(=O)NCC(=O)NC(Cc1ccccc1)C(=O)Oc1ccc([N+](=O)[O-])cc1 (centres undefined)
67.9 µM (inactive)

---

# Test system: COLO 205
# Assay Explanation: NCI tumour cell line growth inhibition, 48 h
Activity calls are given as the source filed them. Rule as the data show it: active = GI50 up to about 1.1 µM and inactive = higher.
Please state which outcome applies, choosing from active, inactive

COC(=O)C(=O)C(C(=O)C(=O)Nc1cc([N+](=O)[O-])ccc1[N+](=O)[O-])c1nc2ccc(C(=O)c3ccccc3)cc2nc1O (configuration not stated) | inactive
CC12C=CC(C)(C3C(=O)C4C(C(=O)C31)C1(C)C=CC4(C)[S+]1[O-])[S+]2[O-] (configuration not stated) | inactive
O=[N+]([O-])c1cc(/N=N/c2c(O)ccc3cc(S(=O)(=O)O)ccc23)c(O)c([N+](=O)[O-])c1 | inactive
CC(=O)/N=C1\NC(=O)/C(=C/c2ccc(/C=C3/C(=O)N/C(=N\C(C)=O)N3C)cc2)N1C | inactive
CNc1ccc2c(c1)Cc1ccccc1-2 | inactive

Please let me know the test result on file for CC1=CC(N2C(=O)C(C)=CC2O)NC1=O (configuration not stated) .
inactive

---

# GI50 values compiled below
# Tested on: BT-549
# Assay Explanation: NCI tumour cell line growth inhibition, 48 h
The source made the active and inactive calls. Rule as the data show it: active = GI50 up to about 1.1 µM and inactive = higher.

Example cases with answers are listed next.
CCN1c2cc(Br)cc3[nH]c(=O)n(c23)CCC1C (configuration not stated) | 6.85 µM (inactive)
CCCCC/C=C1/CC(CO)(COC(=O)CC(C(C)C)C(C)C)OC1=O (configuration not stated) | 14.8 µM (inactive)
CN(C)CCn1c(=O)c2ccc(NCCNCCO)c3c(=O)c4cc(O)ccc4n(c1=O)c23 | 10.9 µM (inactive)
CCCCCCCCCCCNC=O | 21.8 µM (inactive)
C[C@@H]1CC[C@@]2(NC1)O[C@H]1C[C@H]3[C@@H]4CC[C@H]5C[C@@H](O)CC[C@]5(C)[C@H]4CC[C@]3(C)[C@H]1[C@@H]2C | > 100 µM (inactive)
CCCCSC1=N/C(=C\c2ccco2)C(=O)N1 | 33.2 µM (inactive)

# lookup: GI50 of CCOc1ccc(/N=N/C2C(=O)N(C(=O)CC(=O)Nc3ccc(Cl)cc3)N=C2C)cc1 (configuration not stated)
> 100 µM (inactive)

---

# GI50 values compiled below
# System: SW-620
# Assay Explanation: NCI tumour cell line growth inhibition, 48 h
Calls of active or inactive are those of the source. Cut-off read from the data, not from the text of the source: active = GI50 up to about 1.1 µM and inactive = higher.

Example cases with answers are listed next.
CCOC(=O)/C=C/c1c(C)[nH]c(=O)[nH]c1=O | > 250 µM (inactive)
CC(=O)CC(O)(C(F)(F)Cl)C(F)(F)Cl | > 10 µM (inactive)
CC(=O)OC(=C(C#N)C#N)c1nccnc1C(=O)O | > 100 µM (inactive)
Cn1c2ccccc2c2c3c(c4c5ccccc5n(C)c4c21)C(=O)N(c1ccccc1)C3=O | > 100 µM (inactive)
Cn1c2ccc([N+](=O)[O-])cc2c(=O)c2c(O)cc(O)cc21 | 68.2 µM (inactive)

# lookup: GI50 of Cc1cccc(C)c1NC(=O)C(=O)C(C#N)c1ccccc1 (configuration not stated)
> 100 µM (inactive)

# lookup: GI50 of CC1(C)OC2OC(COC(=O)c3ccc(C#N)cc3)C3OC(C)(C)OC3C2O1 (configuration not stated)
> 75 µM (inactive)

# lookup: GI50 of COc1ccc(N[S+]([O-])c2ccc(OC)cc2)cc1 (configuration not stated)
64.6 µM (inactive)

# lookup: GI50 of COC(=O)c1cc2c(cc1CC1Cc3cc4c(cc3C1=O)CCC4)CCC2 (configuration not stated)
29.4 µM (inactive)

# lookup: GI50 of Oc1ccc2c3c1OC1C(=NN=C4CCC5(O)C6Cc7ccc(O)c8c7C5(CCN6CC5CC5)C4O8)CCC4(O)C(C2)N(CC2CC2)CCC314 (configuration not stated)
20.8 µM (inactive)
